pKi for WD repeat-containing protein 5 (Homo sapiens), merged from several publications.
Numbers only, as −log10 of the molar value.

Worked set:
>  <Molecule>
COc1ccc(Br)cc1S(=O)(=O)Nc1cc(Cl)cc(C(=O)NCCO)c1O

>  <Obs Value>
5.93

$$$$
>  <Molecule>
Cc1ccc2c(c1)C(N1CCc3c(cc(Cn4ccnc4C)cc3-c3cn(C)nc3C(F)(F)F)C1=O)CCO2 (centres unmarked)

>  <Obs Value>
10.55

$$$$

For each of the molecules below, state pKi.
1. N#CC1(c2cc(NS(=O)(=O)c3cc(Br)cc4cccnc34)c(O)c(C(=O)O)c2)CCC1
2. O=C(NCc1ccc(=O)[nH]c1)c1cc(Cl)cc(NS(=O)(=O)c2cc(Br)ccc2O)c1O
3. O=S(=O)(Nc1nc2ccc(OC(F)(F)F)cc2s1)c1cc(Br)cc(Cl)c1O
4. O=C(NCCO)c1cc(OC(F)(F)F)cc(NS(=O)(=O)c2cc(Br)ccc2O)c1O
5. CN(CCO)C(=O)c1cc(C2CC2)cc(NS(=O)(=O)c2cc(Br)ccc2O)c1O

A:
1. 7.40
2. 6.64
3. 5.41
4. 6.60
5. 5.42

* * *

Reported Ki against WD repeat-containing protein 5 (Homo sapiens, UniProt P61964), gathered from multiple publications, appears below.
Please note: Ki exactly at 900 nM is condition not met. Only values below 900 nM get condition met.

>  <Compound>
O=C(NCC1CCCO1)c1cc(OC(F)(F)F)cc(NS(=O)(=O)c2cc(Br)ccc2O)c1O (stereo not shown)

>  <Assayed System>
WD repeat-containing protein 5 (Homo sapiens, UniProt P61964)

>  <Group Label>
condition met

$$$$
>  <Compound>
CS(=O)(=O)c1cc(S(F)(F)(F)(F)F)cc(NS(=O)(=O)c2cc(Br)cc(Cl)c2O)c1O

>  <Assayed System>
WD repeat-containing protein 5 (Homo sapiens, UniProt P61964)

>  <Group Label>
condition met

$$$$
>  <Compound>
COc1cc(F)c(Br)cc1S(=O)(=O)Nc1cc(Cl)cc(C(=O)O)c1O

>  <Assayed System>
WD repeat-containing protein 5 (Homo sapiens, UniProt P61964)

>  <Group Label>
condition not met

$$$$
>  <Compound>
CCc1cc(NS(=O)(=O)c2cc(Br)cc(Cl)c2O)c(O)c(C(=O)O)c1

>  <Assayed System>
WD repeat-containing protein 5 (Homo sapiens, UniProt P61964)

>  <Group Label>
condition met

$$$$

Q: I'd appreciate it if you could check whether `O=S(=O)(Nc1cc(OC(F)(F)F)ccc1O)c1cc(Br)ccc1O` has Ki smaller than 900 nM.
A: condition met

Q: I'd appreciate it if you could check whether `COCCCNC(=O)c1cc(Cl)cc(NS(=O)(=O)c2cc(Br)ccc2OC)c1O` has Ki smaller than 900 nM.
A: condition not met

Q: Quick check: Ki of `Cc1nc(NS(=O)(=O)c2cc(Br)cc(Cl)c2O)cn1C1CCC1` under 900 nM?
A: condition met

Q: Lab note: Ki threshold 900 nM. Does this compound come in strictly under it? `CS(=O)(=O)c1cc(NS(=O)(=O)c2cc(Br)cc(Cl)c2O)cc(OC(F)(F)F)c1`
A: condition met

Q: Regarding `COc1cc(CN2CCN(C)C(=O)C2)c2nccc(N3CCc4c(cc(Cn5ccnc5)cc4-c4cn(C)nc4C(F)(F)F)C3=O)c2c1` , kindly confirm whether its Ki is beneath 900 nM.
A: condition met

Q: Does this compound meet the criterion Ki < 900 nM? `O=C(O)c1cc(F)cc(NS(=O)(=O)c2cc(Br)ccc2O)c1O`
A: condition not met

Q: Lab note: confirm whether the reported Ki for this compound is below 900 nM, equality not counting. compound: `CNC(=O)c1cc(C2(C#N)CCC2)cc(NS(=O)(=O)c2cc(Br)cc(OC(F)(F)F)c2O)c1O`
A: condition met

Q: Please check: Ki for `O=S(=O)(Nc1cc(-c2ccccc2)[nH]n1)c1cc(Br)cc(Cl)c1O` , strictly under 900 nM or not?
A: condition not met

Q: Bench note: check whether `CN(C)CCNC(=O)c1cc(C2CC2)cc(NS(=O)(=O)c2cc(Br)ccc2O)c1O` shows Ki below 900 nM
A: condition not met

Q: Ki strictly < 900 nM for this compound? `CCCc1cc(Br)cc(S(=O)(=O)Nc2cc(Cl)cc(C(=O)O)c2O)c1O`
A: condition met

Q: A record lists `CN1CCN(C(=O)c2cc(C3CC3)cc(NS(=O)(=O)c3cc(Br)ccc3O)c2O)CC1` . Is its Ki below 900 nM?
A: condition not met

Q: Hello, I'm reviewing records and need to know if Ki of `CCc1ccc2cncc(N3CCc4c(cc(Cn5ccnc5)cc4-c4cn(C)nc4C(F)(F)F)C3=O)c2c1` is below 900 nM. Could you check?
A: condition met

Q: Field: below-cutoff. Rule: recorded Ki strictly less than 900 nM. Subject: `CS(=O)(=O)c1cc(C2CC2)cc(NS(=O)(=O)c2cc(Br)cc(Cl)c2O)c1O`
A: condition met

Q: For this compound, is Ki lower than 900 nM? COc1ccc(Br)cc1S(=O)(=O)Nc1cc(Cl)cc(C(=O)NC2CCOC2)c1O (stereo not shown)
A: condition not met

Q: Quick check: does `CNC(=O)c1cc(NS(=O)(=O)c2cc(Br)cc(Cl)c2O)cc(C2CC2)c1F` have Ki under 900 nM?
A: condition met

Q: Please determine if `Cc1cc2c(N3CCc4c(cc(Cn5ccnc5)cc4-c4cn(C)nc4C(F)(F)F)C3=O)cccc2n1C` is below 900 nM in terms of Ki.
A: condition met

Q: Bench note: check whether `NC(=O)c1c(O)c(NS(=O)(=O)c2cc(Br)ccc2O)cc(C2CC2)c1F` shows Ki below 900 nM
A: condition met

Q: Given the entry `CCc1cc(C(=O)NC2CN(C(=O)c3cscn3)C2)c2nccc(N3CCc4c(cc(Cn5ccnc5)cc4-c4cn(C)nc4C(F)(F)F)C3=O)c2c1` , would its reported Ki be below 900 nM?
A: condition met

Q: Please state whether Ki is below 900 nM for `CCOC(=O)c1cc(OC)cc2c(N3CCc4c(cc(Cn5ccnc5)cc4-c4cn(C)nc4C(F)(F)F)C3=O)cc(C)nc12`
A: condition met

Q: Below 900 nM on Ki? Entry `COc1cc(Cn2ccnc2)c2nccc(N3CCc4c(cc(Cn5ccnc5)cc4-c4cn(C)nc4C(F)(F)F)C3=O)c2c1`
A: condition met
